assay: activity coefficient (dimensionless); of the first substance listed, at infinite dilution; xn = mol fraction of the nth substance listed; details: 313 K; 101.33 kPa; Liquid; Chromatography; x1 = 0
Measured metric: activity coefficient
Just the number, please, no unit attached.

{"columns": ["Compound", "activity coefficient"],
 "data": [
  ["O=C1CCCCC1 [cyclohexanone] + O=S(=O)([N-]S(=O)(=O)C(F)(F)F)C(F)(F)F.O=S(=O)([N-]S(=O)(=O)C(F)(F)F)C(F)(F)F.O=S(=O)([N-]S(=O)(=O)C(F)(F)F)C(F)(F)F.c1ccc2cc(-n3cc[n+](Cc4cc(C[n+]5ccn(-c6ccc7ccccc7c6)c5)cc(C[n+]5ccn(-c6ccc7ccccc7c6)c5)c4)c3)ccc2c1", 1],
  ["C1CCCCC1 [cyclohexane] + O=S(=O)([N-]S(=O)(=O)C(F)(F)F)C(F)(F)F.O=S(=O)([N-]S(=O)(=O)C(F)(F)F)C(F)(F)F.O=S(=O)([N-]S(=O)(=O)C(F)(F)F)C(F)(F)F.c1ccc2cc(-n3cc[n+](Cc4cc(C[n+]5ccn(-c6ccc7ccccc7c6)c5)cc(C[n+]5ccn(-c6ccc7ccccc7c6)c5)c4)c3)ccc2c1", 11.7],
  ["Cc1cccc(C)c1 [1,3-dimethylbenzene] + O=S(=O)([N-]S(=O)(=O)C(F)(F)F)C(F)(F)F.O=S(=O)([N-]S(=O)(=O)C(F)(F)F)C(F)(F)F.O=S(=O)([N-]S(=O)(=O)C(F)(F)F)C(F)(F)F.c1ccc2cc(-n3cc[n+](Cc4cc(C[n+]5ccn(-c6ccc7ccccc7c6)c5)cc(C[n+]5ccn(-c6ccc7ccccc7c6)c5)c4)c3)ccc2c1", 3.42]
]}

// query Item ClC(Cl)(Cl)Cl [tetrachloromethane] + O=S(=O)([N-]S(=O)(=O)C(F)(F)F)C(F)(F)F.O=S(=O)([N-]S(=O)(=O)C(F)(F)F)C(F)(F)F.O=S(=O)([N-]S(=O)(=O)C(F)(F)F)C(F)(F)F.c1ccc2cc(-n3cc[n+](Cc4cc(C[n+]5ccn(-c6ccc7ccccc7c6)c5)cc(C[n+]5ccn(-c6ccc7ccccc7c6)c5)c4)c3)ccc2c1 has what recorded activity coefficient?
// result 4.72

Hello, the source for this data is the NIST ThermoML archive (doi:10.1021/acs.jced.8b00601), in case you need it.
